- targetOrTestSystem: SUV39H2 (Homo sapiens (Human))
- Sequence (Q9H5I1 whole entry): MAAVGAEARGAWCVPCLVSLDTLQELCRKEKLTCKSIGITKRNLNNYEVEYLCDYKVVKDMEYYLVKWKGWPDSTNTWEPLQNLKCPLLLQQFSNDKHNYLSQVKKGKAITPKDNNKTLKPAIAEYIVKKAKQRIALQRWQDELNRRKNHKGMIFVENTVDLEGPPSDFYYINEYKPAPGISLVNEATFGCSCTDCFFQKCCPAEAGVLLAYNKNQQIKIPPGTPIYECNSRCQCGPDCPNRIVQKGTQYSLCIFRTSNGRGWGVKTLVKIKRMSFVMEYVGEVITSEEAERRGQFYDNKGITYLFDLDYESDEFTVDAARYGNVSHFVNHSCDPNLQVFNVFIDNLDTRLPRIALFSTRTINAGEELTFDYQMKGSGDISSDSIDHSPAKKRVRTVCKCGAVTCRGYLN
- procedureDetails: biochemical
- Format: biochemical
- measurementParameters: 3H-SAM 100 nM, H3 Histone Peptide 350 nM, room temperature 3 hours
Where a name gives a salt, the structure may show the parent alone.
reportedMetric: IC50 (nM)
Report only the number, with the unit nM understood.

Worked examples, 5 compounds total:
COc1cc(OC)c(-c2cn3ccc(N4CCN(c5ccnc(C#N)c5)CC4)cc3n2)cc1Cl [Example 330]    98
COc1cc(OC)c(-c2cn3ccc(N4CCN(c5cc(N6CCCCC6)ncn5)CC4)cc3n2)cc1Cl [Example 353]    41.9
COc1cc(OC)c(-c2cn3ccc(N4CCN(c5ccnc(N6CCN(C)CC6)n5)CC4)cc3n2)cc1Cl [Example 351]    28.6
COc1cc(OC)c(-c2cn3ccc(N4CCN(c5nccc(N6CCNCC6)n5)CC4)cc3n2)cc1Cl [Example 359, dihydrochloride]    12.2
COc1cc(OC)c(-c2cn3ccc(N4CCN(c5cccc(N6CCN(C)CC6)n5)CC4)cc3n2)cc1Cl [Example 381]    43.1

Sure, the documented IC50 for COc1cc(OC)c(-c2cn3ccc(N4CCN(c5cc(N6CCCC6)nc(N)n5)CC4)cc3n2)cc1Cl [Example 385] is 38

Sure, the documented IC50 for COc1cc(OC)c(-c2cn3ccc(N4CCN(c5cc(N(C)C)nc(N)n5)CC4)cc3n2)cc1Cl [Example 389, dihydrochloride] is 39.3

Sure, the documented IC50 for COc1cc(OC)c(-c2cn3ccc(N4CCN(c5cc(N6CCOCC6)nc(N)n5)CC4)cc3n2)cc1Cl [Example 384] is 10.9

Sure, the documented IC50 for COc1cc(OC)c(-c2cn3ccc(N4CCN(Cc5ncccn5)CC4)cc3n2)cc1Cl [Example 352] is 9.25

Sure, the documented IC50 for COc1cc(OC)c(-c2cn3ccc(N4CCN(c5cncnc5)CC4)cc3n2)cc1Cl [Example 317] is 11.6
